- TESTED_TARGET: Thrombin & trypsin (Homo sapiens) (UniProt P00734+P07477+P07478+P35030)
- ASSAY_EXPLANATION: Selectivity ratio of thrombin Kass to trypsin Kass
- Type: protein assay
MEASURE_NAME: Ratio
No unit in the answer, only the number.

What does the data say about its Ratio? Entry: "NC(N)=NCCCCCNC(=O)[C@@H]1CCCN1C(=O)[C@H](N)Cc1ccccc1" 480

Reported Ratio for "NC(N)=NCCCNC(=O)[C@@H]1CCCN1C(=O)[C@H](N)Cc1ccccc1" : what is it? 100

For the compound shown here, NC(N)=NCCCCNC(=O)C1CCCN1C(=O)[C@H](N)Cc1ccccc1 (stereo partly specified) , give the reported Ratio. 33

What measured Ratio goes with "NC(N)=NCCC[C@@H](C=O)NC(=O)[C@@H]1CCCN1C(=O)[C@H](N)Cc1ccccc1" ? 5.1

Find the recorded Ratio belonging to "CN[C@H](Cc1ccccc1)C(=O)N1CCC[C@H]1C(=O)N[C@H](C=O)CCCNC(=N)N" and report it. 5.2

Find the recorded Ratio belonging to "CN[C@H](Cc1ccccc1)C(=O)N1CCC[C@H]1C(=O)NCCCCN=C(N)N" and report it. 10
